Tested On: GRASP, Q7Z6J2
Sequence (Q7Z6J2 96-193): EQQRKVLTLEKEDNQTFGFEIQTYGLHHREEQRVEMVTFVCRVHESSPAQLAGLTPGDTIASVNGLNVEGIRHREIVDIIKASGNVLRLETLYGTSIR
Assay Procedure: holdup assay
Design: key: below the threshold = too weak to quantify, mostly under pKd 3.1 to 4
Measurement Conditions: plain residues with an end cap or a label only (N-terminal biotin on a linker: ado-ado)
Listed here are binders together with their documented pKd.
The response must contain the number and no unit.

pKd for STKRKLASAV [NCF1, P14598] ? 3.65

pKd for NTANRRTTPV [CACNG2, Q9Y698] ? 4.18

pKd for ARESQKVSHV [FAM110B, Q8TC76] ? 3.8

More entries:
pKd for RFQQRMQTHV [KIRREL1, Q96J84] ? 4.35

pKd for APIAGFSSFV [SDK2, Q58EX2] ? 4.44

pKd for TNSRHGETTV [FZD2, Q14332] ? 3.56

pKd for NIAESLESLV [PTPRZ1, P23471] ? 3.74

pKd for KSRVAFFEEL [NF2, P35240;P35240-1] ? 4.08

pKd for EIPAQSPTCV [FZD10, Q9ULW2] ? 4.22

pKd for DPAESMESLV [PTPRG, P23470] ? 3.62

pKd for DTKNYKQTSV [CRIPT, Q9P021] ? 4.11

pKd for EDPRVEVTQF [SLC22A9, Q8IVM8] ? 5.02

pKd for PPGKHLVTEV [KCNA7, Q96RP8] ? 4.6

pKd for VLYPREGTEV [FOXI1, Q12951] ? 4.31

pKd for REEPDHSTEV [CCRL2, O00421] ? 3.77

pKd for QSYPSKHDYV [CLDN18, P56856] ? 3.71

pKd for ILRKSTTTTV [PRR16, Q569H4] ? 4.41

pKd for SLNANEVEWF [RNF130, Q86XS8] ? 4.08
